- ASSAY: yeast display, Sf9 membrane polyspecificity reagent, FACS + sequencing; frameworks hold sequencing errors
ATTRIBUTE MEASURED: polyreactivity (PSR sort gate)

1. QVQLVESGGGLVQAGGSLRLSCAASGNTFNENAMGWYRQSPGKERELVAAITSSGVSTFYADSVKGRFTISRDNAKNTVYLQMNSLKPEDTAVYYCAAEYYELDEYTGDYWVGSDYWGQGTQVTVSS
low polyreactivity
2. QVQRVESGGGLVQAGGSLRLSCAASGLILVPNTMGWYRQAPGKVRELVAAISYSGGGTYYADAVKGRFTISRDNAKNTVYLQMNSLKPEETAVYDCAAYVKRESAPYGYWGQGTQVTVSS
low polyreactivity
3. QVQLVESGGGLVQAGGSLRLSCAASGRTFGGYAMGWYRQAPGKERELVAAIRSRGGRTYYADSVKGRFTISRDNAKNTVYLQMNSLKPEDTAVYYCATYGNKWGEDYWGQGTQVTVSS
high polyreactivity
4. QVQLVESGGGLVQAGGSLRLSCAASGYTFSVNVMGWYRQAPGKERELVAAISGRGGRTYYADSVKGRFTISRDNAKNTVYLQMNSLKPEDTAVYYCAAVRGKPGRISYPYDYWGQGTQVTVSS
high polyreactivity

Value lookup for polyreactivity (PSR sort gate); key = QVQLVESGGGLVQAGGSLRLSCAASGSTFVTNAMGWYRQAPGKEREFVAAISNSSGSTYYADSVKGRFTISRDNAKNTVYLQMNSLKPEDTAVYYCIATPDDWLQEDYWGQGTQVTVSS
low polyreactivity

---

- ASSAY: yeast display, Sf9 membrane polyspecificity reagent, FACS + sequencing; frameworks hold sequencing errors
ATTRIBUTE MEASURED: polyreactivity (PSR sort gate)

1) QVQLVESGGGLVQAGGSLRISCAASGFTFRKYTMGWYRQAPGKERELVAAISRRGGSTYYADSVKGRFTISRDNAKNTVYFQMNSLKPEVTAVYYCATDHIPSVGVDYWGQGTQVTVSS
high polyreactivity
2) QVQLVESGGGLVQAGGSLRLSCAASGLTFAYYAMGWYRQAPGKDRELVAAISWNGGRTYYADSVKGRFTISRDNAKNTVYLQMNSLKPEDTAVYYCAAQVTSSFYWGQGTQVTVSS
high polyreactivity
3) QVQLVESGGGLVQAGGGLRLSCAASGTFKRNAMGWYRQAPGKERELVATITRTGSTTYADSVKGRFTISRDNAMNTVYLQMYSQKPEDTAVYYCAAGYPPEDPEDYWGQGTQVTVSS
low polyreactivity
4) QVHLVESGGGLVQAGGSLRLSCAASGSIFAVYAMGWYRQAPGKERELVAAITRSGRTSYADSVKGRFTISRDNAKNTVYLQMNSLKPEDTAVFYCAVRTYYPTFGGFYYWGQGTQVTVSS
high polyreactivity
5) QVQLVESGGGLVQAGGSLRLSCAASGLTLSGYAMGWYRQAPGKERELVAAISSTGGSTYYADSVKGRFTISRDNAKNTVYLQMNSLKPEATAVYYCAKGYSPTRVRLRYPRYDTYNHWGQVTQVTVSS
high polyreactivity
6) QVQLVESGGALVQAGGSLRLSCAASGSIFKKYAMGWYRPAPGKERELVAAITRGTYYADSVKGRFTISRVNAKNTVYLQMNSLKPEDTAVYYCNREYWGRGYYRVRGEYDYWGQGTQFTVSS
low polyreactivity

What value of polyreactivity (PSR sort gate) has been reported for the following sequence? QVQLVESGGGLVQAGGSLRLSCAASGRTFRGNTMGWYRQAPGKERELVAAISRGGSTNYADSVKGRFTISRDNTKNTVYLQMNSLTPEDTAVYYCAKDRYVRWGRTFEFDYWGQGTQVTVSS
low polyreactivity

Also check QVQLEESGGGLVQAGGSLRLSCAASGSTIRYNAMGWSRQAPGKERELVAGISVRGGSTYYADSVKGRFTISRDNAKNTVYLQMNSLKPEDTAVYYCATRSPYSYPNLYYWGQGTQVTVSS
high polyreactivity

Continue with QVQLEESGGGLVQAGGSLRLSCAASGLTFTPNAMGWYRPAPGKEWELVAAITNGGSTNYADSVKGCFTISRDNAKNTVYLQMNSLKPEDTAVYYCAAECSYWFRRYGYWGQGTQVTVSS
high polyreactivity

Queued: QVQLVESGGGLVQAGGSLRLSCAASGFTFDVNAMGWYRQAPGKERELVASITGSGSRTDYADSVKGRFTISRDNAKNTVYLQMNSLKPEDTAVYYCATDQRLGYQDDDYWGQGTQVTVSS
low polyreactivity

Same read-out for QVQLVESGGGLVQAGGSLRLSCAASGAIFESNAMGWYRQAPGKEREFVAAIDQNDGSSNYADSVKGRFTISRDNAKNTVYLQMNSLKPEDSAVYYCAAEVPGYWYLDYEYWGHGTQVTVSS ?
low polyreactivity

Lookup QVQLVESGGGIVQAGGSLRLSCAASGLNFGLYAMGWDRQAPGNERELVAAITWSGVSTSYADSVKGRFTISRDNAKNTVYLQMNSLKPEDTAVYYCNKDPGTLYGDMDSWGQGTQVTVSS
low polyreactivity

Follow-up item: QFQLVESGGGLVQAGGSLRLSCAASRRTFTYYDMGWYRQAPGNEGELVSAISRRGGSTYYADSVKGRFTISRDNAKNTVYFQMNSLKPEDTAVYYCAAEVRLFSYTYSFFRYEYWGQGTHVTVSS
high polyreactivity

---

- ASSAY: yeast display, Sf9 membrane polyspecificity reagent, FACS + sequencing; frameworks hold sequencing errors
ATTRIBUTE MEASURED: polyreactivity (PSR sort gate)

Example entries and their recorded answers appear below.
1) QVQLVESGGGLVKAGGSHRLSLASYGTFRYYAMGWYRQAPGKERELDAGISRSGGSTYYEDSVKGRFTISRDNAKNTVYLQMNSQNPEDTEVYDCAAGNYYYWYKTKYYHYDYWGQGTQVTVSS
high polyreactivity
2) QVQLVESGGGLVQAGGSLRLSCAASGFTFSKYTMGWYRPAPGKERELVAAITSGGSTNYADSVKGRFTISRDNAKNTVYLQMNSLKPEDTAVYYCNKRHIAHNGVGAGLELDYWGQGTQVTVSS
low polyreactivity
3) QVHLVESGGGLVHAGGSIRLSCAASGSIFGYYAMGWYRQAPGKEREFVAAITWNGGSTYYADSVKGRFTISRDNAKNTVYLEMISLKPEDTAVYYCARTSYARFRNGWTYDHWGQGTQVSVSS
low polyreactivity
4) QVQLVESGGGLVQAGGSLRLSCAASGIIFGPYVMGWYRQAPGKERELVATISRTGDTYYADSVKGRFTISRDNAKNTVYLQMNSLKPEDTAVYYCAVEWSAHKYYYWGQGTQVTVSS
low polyreactivity
5) QVQLVESGGGLVQAGGSIRLICAASGRTFSRYAMGWYRQAPGKERELVAAITFRFGRTYYADSVKGRFTISRDNAKNTVYLQMNSMKPEDTSVYYCAAETKYSGAYPYDYWGQGTQVPVSS
high polyreactivity

Kindly review the next sequence as well.
Can you look up the measured polyreactivity (PSR sort gate) of QVQLVESGGGLVQAGGSLRLTCAASGRIIGFNAMGWYRQAPGKERELVASIRTTGGTTYYADSVKGRFTISSDNAKNTVYLQMNSLKPEDTAVYYCAARRYPPRMDYWGQGTQVTVSS for me?
high polyreactivity

---

- ASSAY: yeast display, Sf9 membrane polyspecificity reagent, FACS + sequencing; frameworks hold sequencing errors
ATTRIBUTE MEASURED: polyreactivity (PSR sort gate)

1) QVQLVESGGGLVQAGGSLRLSCAASGSIFAKYAMGWYRQAPGKERELVAAITSGGSTNYADSVKGRFTISRDNAKITVYLQINSLKPEDTAVYYCNATGLYYDFYKLDYWGQGTQVTVSS
low polyreactivity
2) QVQLVESGAGLVQAGGSLRLSCAASGSTVAGNAMGGYRQAPGTERELVAAIDSSTGSTYYADCVKGRFTISRDNAKITVYLLMNSLKPEDTAVYYCADDQVHKREYDYWGQGTQVTVSS
low polyreactivity
3) QVQLVESGGGLVQAGGSLRLSCAASGRIFTSYAMGWYRQAPGKERELVAAISGSSASTYYADSVKGRFTISRDNAKNTVYLQMNSLKPEDTAVYYCAAYKYDYRVDTGYDYWGQGTQVTVSS
low polyreactivity

---

- ASSAY: yeast display, Sf9 membrane polyspecificity reagent, FACS + sequencing; frameworks hold sequencing errors
ATTRIBUTE MEASURED: polyreactivity (PSR sort gate)

1. QVQLVESGGGLVQAGGSLRLSCAASGITFTAYAMGWYRQAPGKERELVATINSTGITNYADSVKGRFTISRDNAKNTVYLQMNSLKPEDTAVYYCAADLLDISSYDGMDYWGHGTQVTVSS
low polyreactivity
2. QVQLVESGGGLVQAGGSLRLSCAASGRTFDFYAKGWYRQAPGKERELVAAITFSTGSTTYADSVKGRFTISRDNAKNTVYLQMNSLKPEDTAVYYCAADGDGWWWSYVDRYDYWGQGTQVTVSS
low polyreactivity
3. QVHLVESGGGLVQAGGSLRLSCAASGSIFGSQNAMGWYRQAPGKERELVAAYYTARGARTYYADSVKGRFTISRDNAKNTVYLQMNSLKPEDTAVYYCAPRRYGRYRYDYWGQGTQVTVSS
low polyreactivity
4. QVQLVESGGGLVQAGGSLRLSCAASGGTFSNNAMGWYRQAPGKERELVAAISNSGGRTYYADSVKGRFTISRDNAKNTVYLQMNSLKPEDTAVYYCNVRRGYWHPGYGWANYDYWGQGTQVTVSS
high polyreactivity

Bench note: what polyreactivity (PSR sort gate) did QLQLVESGRGLVQAGGTLRLSCAASGRIFGKNAIGSYRQAPGKEMELVAAITGSGGRTYNADSVKGRFTISRDNAKNTVYLQMNSMKPEDTAVYYCAVRVTSYYRTMDYWGQGTQGTVSS show?
low polyreactivity

Can you handle QGQLVESGGGLVQAGGSLSLSCAASGSIFQGYAMGWYRQAPGNEWEFVAAISESDGSTYYADSVKGRCTISRDNAKNTVYLQMNSLKPEDTAVYYCAADKQAYVTDDYWGQGTQVTVSS next?
high polyreactivity

// repeat for QVQLVESGGGLVQAGGRLRLSCAASGITFYENAMGWYRQAPGKERELVAAISYSGGNTYPDSVKGRFTISRDNEKNTVYLQMNSLKPEDTAVYYCNADYAGWGEYDYCGQGTQVTVSS and report
low polyreactivity

Now the sequence QVQLVESGGGLVQAGGSLRLSCAASGSIFVYYAMGWYRQAPGKERELVAAINSSGGRTYYADSVKGRFTISRDNAKNTVYLQMNSLKPEETAVYYCAAVYRYWTSYNGRNYWGQGTQVTVSS
high polyreactivity

Lookup QFQLVESGGGLVQAGGSHRLSCAASGRIVDYYAMGWYRQAPGKERDLVAAISTSGGSTYYADSVKGRFTISRDNAKITVYLLMNSLKPEDTAVYYCGKDITVTYPVLDYDYWGQCTQVTVSS
low polyreactivity

Query QVQLVESGVGLVQAGGSLRLSSAASGSIFHSYAMGWYRQAPGKERELVASITASGDSTYYADSVKGRFTISRDNAKNTVYLPMNSLKPEDTAVFYCNTQAVYGGGEGGYDYWGQGTQVTVSS next
low polyreactivity

Now give it for QVQLVESGGGVVQAGGSLRLSCAASGRNFYSYAMGLYTQAPGKERELVAAISKRGTSTYYADSVKGRFTISRDNAKNTVYLQMNSLKPEDTAVYYCAAVHWRYQYSLRYDYWGQGTQVTVSS too.
high polyreactivity
